Test system: GA-10
Test: Cell viability assay, lymphoma cell line GA-10
Type: cell-based
Details: Homo sapiens; GA-10 lymphoma cell line
Endpoint: IC50 (µM)

# Compound, System, Endpoint, Value Observed
records = [
    ("COc1c(O)ccc2c(=O)cc(-c3ccc(CNCCCCNCCCN)cc3)oc12 [SND164]", "GA-10", "IC50", 3.9),
]
